// data source = paper PMC10786891

Target: T1, EsCas13d, nuclease-dead (Eubacterium siraeum, UniProt B0MS50, R295A;H300A;R849A;H854A)
T1 sequence: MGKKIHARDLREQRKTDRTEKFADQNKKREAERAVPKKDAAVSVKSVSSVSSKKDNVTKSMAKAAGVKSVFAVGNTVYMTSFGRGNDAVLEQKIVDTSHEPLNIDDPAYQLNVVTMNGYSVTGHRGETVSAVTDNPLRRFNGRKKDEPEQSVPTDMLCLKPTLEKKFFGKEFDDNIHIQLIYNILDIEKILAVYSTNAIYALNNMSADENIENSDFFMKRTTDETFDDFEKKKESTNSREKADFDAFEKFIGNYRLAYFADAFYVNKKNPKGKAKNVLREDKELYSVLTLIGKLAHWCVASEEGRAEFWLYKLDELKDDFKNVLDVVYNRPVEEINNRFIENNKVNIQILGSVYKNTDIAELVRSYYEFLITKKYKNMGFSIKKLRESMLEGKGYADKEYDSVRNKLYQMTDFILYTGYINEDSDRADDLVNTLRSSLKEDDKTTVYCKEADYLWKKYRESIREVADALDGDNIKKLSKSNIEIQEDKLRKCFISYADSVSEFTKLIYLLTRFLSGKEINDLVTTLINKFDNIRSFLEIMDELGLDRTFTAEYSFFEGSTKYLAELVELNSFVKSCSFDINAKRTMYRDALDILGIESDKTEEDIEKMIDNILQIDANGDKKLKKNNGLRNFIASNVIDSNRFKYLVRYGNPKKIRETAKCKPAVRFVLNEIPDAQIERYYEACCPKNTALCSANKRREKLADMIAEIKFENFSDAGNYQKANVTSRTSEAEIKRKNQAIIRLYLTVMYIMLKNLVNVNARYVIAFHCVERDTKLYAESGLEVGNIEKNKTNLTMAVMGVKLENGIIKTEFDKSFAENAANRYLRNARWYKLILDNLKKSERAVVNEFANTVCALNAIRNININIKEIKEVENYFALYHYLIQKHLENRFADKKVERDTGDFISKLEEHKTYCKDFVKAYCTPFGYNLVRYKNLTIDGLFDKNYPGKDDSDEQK
Test: crRNA (strand 1, pre-loaded); Mg2+; 40 mM Tris-HCl pH 7.5, 150 mM NaCl, 6 mM MgCl2, 1 mM DTT, 0.1% Tween-20, 0.2 mg/ml BSA; 25 C; 10 min per concentration, then washed
Conditions: tags: His6-TwinStrep-SUMO cleaved; N-terminal SNAP kept (SNAP-Surface 488); label: 3' end held by stalled T7 RNA polymerase
pKd: −log10 of the molar value.

- Binder: "target 2 MT 5'PFS GAA 3'PFS AAU (mixed) RNA 1: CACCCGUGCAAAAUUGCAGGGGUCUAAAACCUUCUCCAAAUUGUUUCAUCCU RNA 2: GGGAAUGGAUCCACAUCUACGAAUUCGAAAGGAUGAAACAAUUUGGAGAAGAAUAGAUCGGAAGAGCACACGU"
  pKd: 7.80
- Binder: "target 1 insU 3' of 17,insA 3' of 17 (mixed) RNA 1: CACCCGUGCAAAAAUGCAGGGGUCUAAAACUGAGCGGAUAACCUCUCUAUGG RNA 2: GGGAAUGGAUCCACAUCUACGAAUUCGUACCAUAGUAAGAGGUUAUCCGCUCACCGAGAUCGGAAGAGCACACGU"
  pKd: 7.52
- Binder: "target 3 del8,del22 (mixed) RNA 1: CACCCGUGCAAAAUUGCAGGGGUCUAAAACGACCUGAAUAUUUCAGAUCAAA RNA 2: GGGAAUGGAUCCACAUCUACGAAUUCGUUUUGAUCUGAAAUAUCAGGUCUGCAGAUCGGAAGAGCACACGU"
  pKd: 7.13
- Binder: "target 1 G5A,U10G (mixed) RNA 1: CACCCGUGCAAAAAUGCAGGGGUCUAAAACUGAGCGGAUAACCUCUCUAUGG RNA 2: GGGAAUGGAUCCACAUCUACGAAUUCGUACCAUAGAGAGGUGAUCCACUCACCGAGAUCGGAAGAGCACACGU"
  pKd: 7.46
